# Test system: MOLT-4 leukemia
# Test Description: NCI tumour cell line growth inhibition, 48 h
So I've got a bunch of compounds here, and I need their TGI values.

[in] Data request, read-out TGI, for Cc1ccc(C2=Nc3ccccc3S(=O)C(c3ccc4c(c3)OCO4)C2)cc1 (stereo not given)
[out] > 100 µM

[in] I have this compound here, COC(=O)C(c1ccc(OC)cc1)N1C(=O)[C@@H](NC(=O)c2ccccc2)[C@H]1[C@@H](C)O (stereo not given in full) , and I need its recorded TGI.
[out] > 100 µM

[in] Which value of TGI has been reported for O=[N+]([O-])c1ccc2c(c1)C(c1ccccc1Cl)=Nc1c(n[nH]c1-c1cccnc1)N2 in the records?
[out] > 25 µM

[in] I would be grateful if you could share the reported TGI for O=S(=O)(c1cc(Cl)ccc1Cl)N1CCN(c2cccc(Cl)c2)CC1 .
[out] > 100 µM

[in] TGI for O=C([CH-]C(=O)c1ccccc1)c1ccccc1.O=C([CH-]C(=O)c1ccccc1)c1ccccc1.O=C([CH-]C(=O)c1ccccc1)c1ccccc1.[Cl-].[Hf+4] ?
[out] > 100 µM

[in] // returns reported TGI for input CCCN(CCC)c1ccc(C=O)c(C)c1
[out] > 100 µM

[in] Param item = CC(=O)Nc1cc2nc3n(c2cc1C)CCC3OC(C)=O (stereo not given) ; retrieve measured TGI.
[out] > 100 µM

[in] // query TGI value for entry C[N+]12C=CC=C1C(N1CCCC1)c1scc(-c3ccc(F)cc3)c12 (stereo not given)
[out] 78.1 µM

[in] // TGI lookup, key: O=C(O)CCN(CCCN(CCC(=O)O)CCC(=O)O)CCC(=O)O
[out] > 100 µM

[in] Fill in: TGI of CC(=O)N[C@@H](Cc1ccc(OP(=O)(O)O)cc1)C(=O)N[C@H]1CCC(=O)N2CCC[C@@H](C(=O)NCc3ccccc3)N2C1=O is ___
[out] > 25 µM

----------
Please provide measured TGI for the entries that follow.
# Tested on: SNB-75 CNS
# Test Description: NCI tumour cell line growth inhibition, 48 h
Express it in µM; write the number only.

[in] What value of measured TGI is listed for CC[PH+](CC)CC.CC[PH+](CC)CC.[Au] ?
[out] 29

[in] Data request, read-out TGI, for N#CC1=C(N)Oc2c(sc3c(Br)cccc23)C1c1ccc(Cl)cc1 (stereo not given)
[out] 9.41

[in] Return reported TGI; argument: C(#CC1(Nc2ccccc2)CCN(Cc2ccccc2)CC1)C1(Nc2ccccc2)CCN(Cc2ccccc2)CC1
[out] 29.7

[in] // query TGI value for entry COc1ccccc1NC(=O)CC(=O)N1N=C(c2ccccc2)C(N=Nc2ccc(Cl)cc2)C1=O (stereo not given)
[out] 55

[in] What value of TGI has been recorded for this entry: O=c1oc2ccc(Br)cc2c(=O)n1-c1ccc(Cl)cc1F
[out] 2.8

[in] Recorded TGI for O=C1CS(=O)(=O)C(c2cccc(Oc3ccccc3)c2)N1C1CC1 (stereo not given) , please?
[out] 80.7

[in] Any idea what TGI was measured for CN(/N=C\c1ccnc2ccccc12)c1ccccc1 ?
[out] 94.9

----------
# Tested on: NCI-H23 lung
# Test Description: NCI tumour cell line growth inhibition, 48 h
Readout Type: GI50

[in] Suppose we examine the molecule N#Cc1c(N/N=C\c2ccc(Cl)cc2)nc(N)nc1N1CCOCC1 ; what GI50 value has been reported?
[out] 87.8 µM

[in] Need GI50 of Cc1ccsc1-c1ccc2c(c1)COC2(CCCN(C)C)c1ccc(F)cc1 (stereo not given) , thanks.
[out] 5.39 µM

[in] Requested field: GI50. Item: CC/C=C\C[C@H](O)C/C=C1/C(=O)C=C[C@@H]1C/C=C\CCCCO
[out] 2.26 µM

[in] // lookup GI50 for Cc1c2c(nn1-c1ccc(S(=O)(=O)NC(=S)NC(=O)c3ccccc3)cc1)-c1ccccc1CC2
[out] 53.9 µM

[in] Name the reported GI50 value associated with the molecule CC(C)C(=O)c1c(C(F)(F)F)n([O-])c2ccccc2[n+]1=O
[out] 1.67 µM

----------
# Tested on: SK-MEL-28 melanoma
# Test Description: NCI tumour cell line growth inhibition, 48 h
Readout Type: TGI

[in] Returns the measured TGI for the input compound. Input: CCCCCCCCCCCCCCCCCC(=O)OCC1OC(OC)C(NC(=O)N(CCCl)N=O)C(O)C1O (configuration not stated)
[out] 53.1 µM

[in] Quick one: TGI of C=C(Cl)C(C)(Cl)CCC(Cl)C(C)C (configuration not stated) ?
[out] > 100 µM

[in] Fill in the blank: the reported TGI of COc1cccc(NC(=O)CC(=O)NN2C(=O)/C(=C/c3ccc(N(CCC#N)CCC#N)cc3)N=C2c2cc([N+](=O)[O-])ccc2Cl)c1 is ____.
[out] > 100 µM

[in] Give the measured TGI of C=C1C(=O)O[C@H]2[C@H]1CC/C(CNC(=O)/C=C/c1ccccc1F)=C\CC[C@@]1(C)O[C@@H]21 .
[out] 6.19 µM

[in] # query: TGI of entry NCCSC(c1ccccc1)(c1ccccc1)c1ccccc1
[out] 3.34 µM

[in] Report TGI for Cn1cc(-c2nnc(-c3ccc(Cl)cc3)[nH]c2=O)c2ccccc21 please.
[out] > 100 µM

[in] Recorded TGI of Cc1cc(=O)n2c3c(c4c(cc13)c(CN(C)C)cc(=O)n4C)OC2 , please.
[out] > 85.8 µM

[in] Please look up its TGI: CCOc1cccc(-c2cc(=O)c3cc4c(cc3[nH]2)OCO4)c1
[out] > 100 µM

[in] So what does the record say about TGI for CN(C)CCOc1ccccc1NC1=C(Cl)C(=O)C(Nc2ccccc2OCCN(C)C)=C(Cl)C1=O ?
[out] > 100 µM

[in] For the compound shown here, CN1NC(c2ccccc2)=C(C#N)C(=O)CC1c1ccc(F)cc1 (configuration not stated) , give the reported TGI.
[out] > 100 µM

[in] Look up TGI: C/C(=N/O)c1sc(-c2nc(C)c(/C(C)=N\O)s2)nc1C
[out] > 100 µM

[in] Given O=S(=O)(CCC[C@H]1[C@@H](CCOCc2ccccc2)C2CCCN1O2)c1ccccc1 (some centres not stated) , state its recorded TGI.
[out] > 100 µM

[in] Can you share its TGI? I mean this compound: Cc1cc2c(cc1Cl)SC(c1ccccc1O)NS2(=O)=O (configuration not stated)
[out] > 100 µM

[in] Return reported TGI; argument: Cc1ccccc1C(C(=O)NC1CCCCC1)N(C(=O)CNc1ccc(C#N)cc1)c1cccc(F)c1 (configuration not stated)
[out] > 100 µM

[in] Entry under review: COc1ccc2c(c1)[n+]([O-])c(/C(C)=N/NC(=O)c1ccccc1O)c(C)[n+]2[O-] . Reported TGI?
[out] > 100 µM

[in] Can you look up the measured TGI of O=C(Nc1cccc(C(=O)NCCCO)c1)/C(=C/c1ccccc1)NC(=O)c1ccccc1 for me?
[out] > 100 µM

[in] Suppose we examine the compound O=c1cccc2n1CC1CNC[C@H]2C1 ; what TGI value has been reported?
[out] > 100 µM

[in] Fill in the blank: the reported TGI of C/C(=C\C(=N\NC(=N)N)c1ccccc1)c1ccccc1 is ____.
[out] 8.86 µM

[in] Quick check: TGI of O=C1C=C(c2ccccc2)O/C1=C\C(=O)c1ccc(Cl)cc1 ?
[out] 38.5 µM

[in] What value of measured TGI is listed for CC(C)Cn1cnc2c(Cl)nc3ccccc3c21 ?
[out] > 100 µM

[in] Need TGI of CN(C)C=Nc1c(I)cc(I)c(CCC(=O)O)c1I , thanks.
[out] > 100 µM

[in] May I ask what TGI has been recorded for NC(=O)CCC(NC(=O)c1c2ccccc2nc2ccccc12)C(=O)O (configuration not stated) ?
[out] > 100 µM

----------
# Tested on: CAKI-1 renal
# Test Description: NCI tumour cell line growth inhibition, 48 h
Readout Type: GI50

[in] Look at this compound and give its reported GI50. COc1cc(CCC(=O)NC[C@@H](O)c2ccccc2)ccc1O
[out] > 100 µM

[in] For the compound shown here, CCCCCCCCCCCCCCCCN(CC)CC , give the reported GI50.
[out] 1.69 µM

[in] Fill in: GI50 of COC(=O)c1oc2c(C(=O)/C=C/c3ccc(OC)cc3)c(OCCN3CCOCC3)ccc2c1C is ___
[out] 1.74 µM

[in] Param item = NC(N)=Nc1ccc(/C=C2\C=Cc3ccccc32)cc1 ; retrieve measured GI50.
[out] 2.49 µM

[in] Dear colleague, I am looking for the recorded GI50 of the following compound: COc1ccc(-c2cn(-c3cc(OC)c(OC)c(OC)c3)c(=O)[nH]2)cc1OC
[out] > 100 µM

[in] Can you share its GI50? I mean this compound: CC[PH+](CC)CC.CC[PH+](CC)CC.[Au]
[out] 6.8 µM

[in] What measured GI50 goes with COc1ccc(Cn2cc3c(c2-c2cc(OC)c(OC)c(OC)c2)CCc2c(CO)noc2-3)cc1 ?
[out] 0.342 µM

[in] Requested read-out: GI50. Entry: CC(=O)OCCCC#CC#Cc1cccc(=O)o1
[out] 13.6 µM

[in] Can you look up the measured GI50 of Nc1nn(C(=O)Nc2c(F)cccc2F)c2ccccc12 for me?
[out] 45.3 µM

[in] What does the record list as GI50 for N#CC1=C(N)Oc2c(sc3c(Br)cccc23)C1c1ccc(Cl)cc1 (stereo unspecified) ?
[out] 0.477 µM

[in] Report GI50 for NC(N)=N/N=C/c1c(-c2cccnc2)nc2sc(Cl)cn12 please.
[out] 20.5 µM
